# Experimental Target: T1, human monomeric His tagged CD33 protein (human, UniProt P20138 18-259)
# T1 construct: also called hCD33-His
# T1 sequence (P20138 18-259 limits assumed): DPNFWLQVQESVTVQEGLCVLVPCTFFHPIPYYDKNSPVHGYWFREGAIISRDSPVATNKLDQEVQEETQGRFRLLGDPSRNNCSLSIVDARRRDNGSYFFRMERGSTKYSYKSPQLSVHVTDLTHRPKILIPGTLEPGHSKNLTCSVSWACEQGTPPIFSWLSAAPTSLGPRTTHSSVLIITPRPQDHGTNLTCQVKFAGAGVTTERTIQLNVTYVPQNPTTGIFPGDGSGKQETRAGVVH
# Experiment Description: ForteBio BLI or MSD-SET, IgG, monomeric antigen;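 note: BLI: antibodies captured on AHQ sensors, 100 nM antigen association 5 min, dissociation 5 min, 1:1 fit. MSD-SET: antigen fixed at 50 pM, antibody titrated, quadratic fit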
Can you tell me Kd for the items I'm about to list?
Give bare numbers, in nM.

Binder	Kd / nM
C-91 (antibody, V domains shown, human IgG1) VH: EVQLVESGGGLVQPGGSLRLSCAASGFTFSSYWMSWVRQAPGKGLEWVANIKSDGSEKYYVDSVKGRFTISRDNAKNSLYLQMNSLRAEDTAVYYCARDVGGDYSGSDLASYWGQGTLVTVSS VL: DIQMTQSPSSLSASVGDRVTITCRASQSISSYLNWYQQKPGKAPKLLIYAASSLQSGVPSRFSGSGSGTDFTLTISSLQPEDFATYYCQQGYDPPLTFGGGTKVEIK	4.26
C-13 (antibody, V domains shown, human IgG1) VH: EVQLVESGGGLVQPGGSLRLSCAASGFTFSSYWMSWVRQAPGKGLEWVANIKSDGSEKYYVDSVKGRFTISRDNAKNSLYLQMNSLRAEDTAVYYCARGPSYLASGAFDLWGRGTLVTVSS VL: EIVLTQSPATLSLSPGERATLSCRASQSVSSYLAWYQQKPGQAPRLLIYDASNRATGIPARFSGSGSGTDFTLTISSLEPEDFAVYYCQQAYVVPPRTFGGGTKVEIK	9.97
C-39 (antibody, V domains shown, human IgG1) VH: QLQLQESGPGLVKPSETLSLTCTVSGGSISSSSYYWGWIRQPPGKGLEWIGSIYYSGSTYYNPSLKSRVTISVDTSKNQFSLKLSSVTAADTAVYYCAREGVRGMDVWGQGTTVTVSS VL: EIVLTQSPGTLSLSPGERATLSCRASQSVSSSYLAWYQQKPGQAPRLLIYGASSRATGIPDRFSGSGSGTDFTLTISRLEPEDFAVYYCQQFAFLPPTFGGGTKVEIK	9.97

Go through the list and state Kd for each entry.
1. C-9 (antibody, V domains shown, human IgG1) VH: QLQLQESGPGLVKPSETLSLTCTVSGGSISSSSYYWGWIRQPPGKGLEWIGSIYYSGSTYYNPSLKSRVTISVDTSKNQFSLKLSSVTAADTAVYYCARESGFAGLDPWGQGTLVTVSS VL: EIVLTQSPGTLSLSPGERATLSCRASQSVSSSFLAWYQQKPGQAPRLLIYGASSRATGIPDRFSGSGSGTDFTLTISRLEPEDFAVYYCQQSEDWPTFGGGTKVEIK
2. C-41 (antibody, V domains shown, human IgG1) VH: QLQLQESGPGLVKPSETLSLTCTVSGGSISSSSYYWGWIRQPPGKGLEWIGSISYSGSTYYNPSLKSRVTISVDTSKNQFSLKLSSVTAADTAVYYCAREGGKGMDVWGQGTLVTVSS VL: EIVLTQSPGTLSLSPGERATLSCRASQSVSSSFLAWYQQKPGQAPRLLIYGASSRATGIPDRFSGSGSGTDFTLTISRLEPEDFAVYYCQQFGDLPTFGGGTKVEIK

Out:
[4.17, 4.37]
